assayEndpoint: melting point

compound | result
CON=Cc1nc2c(N)nc3cc(-c4ccccc4)ccc3c2s1 [Example 138] | 259 to 261 °C
CON=Cc1nc2c(N)nc3cc(-c4cccc(NS(C)(=O)=O)c4)ccc3c2s1 [Example 139] | 254 to 256 °C
CC(C)=NOCc1nc2c(N)nc3ccccc3c2s1 [Example 1] | 152 to 153 °C
CC(C)=NOCc1nc2c(N)nc3cc(Br)ccc3c2s1 [Example 2] | 211 to 213 °C

Field: next compound
Param item = CON=Cc1nc2c(N)nc3cc(Br)ccc3c2s1 [Example 3] ; retrieve measured melting point.
262 to 264 °C

These measurements were taken from patent US8378102B2.
